# assayed-system: hMPV A1 F monomer (human metapneumovirus)
# assay-explanation: ELISA on coated recombinant protein, OD 405 nm
property-measured: EC50 (mg/L)

INSERT INTO measurements (binder, measured) VALUES
  ('MPV482 (antibody, V domains shown) VH: EVQLVQSGGGVVQPGRSLRLSCAASGFTFSSFAMHWVRQAPGKGLEWVALISDDGNNKYHADSVKGRFTISRDSSKNTLYLQMNSLRGEDTAVYYCARDGSVVGAAAHCDHWGQGTLVTVSS VL: SYELTQPPSVSVSPGQTARITCSGDALPNQCAYWYQQKPGLAPVLLIYKDKERPSGIPERFSGSISGTTVTLTISGVQAEDEADYYCQSSDSSSTVVFGGGTKLTVL', 0.29),
  ('MPV456 (antibody, V domains shown) VH: QVQLQESGPGVVKPSGTLSLTCGVSGGSISSSYWWSWVRQPPGKGLEWIGEIYHSGSTNYNPSLKRRVTISVDKSKNQFSLKVTSVTAADTAVYYCARGPIQYYDILTEERVGYCDYWGQGTLVTVSS VL: TLSASVGDRVTITCRASQSISSWLAWFQQKPGKAPKLLIYKTSSLESGVPSRFSGSGSGTEFTLTISSLQPDDFATYYCQEYNSYSRTFGQGTKVEIK', 3.5),
  ('MPV467 (antibody, V domains shown) VH: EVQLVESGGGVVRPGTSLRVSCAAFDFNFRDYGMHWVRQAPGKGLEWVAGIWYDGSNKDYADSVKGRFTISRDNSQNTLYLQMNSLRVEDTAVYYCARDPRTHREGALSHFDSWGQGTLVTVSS VL: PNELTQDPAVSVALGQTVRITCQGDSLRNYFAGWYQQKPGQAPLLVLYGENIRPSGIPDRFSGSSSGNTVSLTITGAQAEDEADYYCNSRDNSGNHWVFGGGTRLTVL', 0.053),
  ('MPV464 (antibody, V domains shown) VH: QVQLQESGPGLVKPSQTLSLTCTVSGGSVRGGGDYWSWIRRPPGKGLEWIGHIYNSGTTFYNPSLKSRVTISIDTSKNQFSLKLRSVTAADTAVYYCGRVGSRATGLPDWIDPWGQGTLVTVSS VL: SYELTQPPSVSVSPGQTATITCSGTNLGAKYSCWYQQKPGQSPVLVIFQDNKRASGIPARFSASTSGDTATLTISGTQVMDEADYFCQAWDSRTAVFGGGTTLTVL', 0.067),
  ('MPV414 (antibody, V domains shown) VH: QVQLVQSGPEVKKPGSSVMVSCKTSGGNFNNFAISWVRQAPGQGLEWMGGIVPIFGTANYAQKSQDRVTITADPSSSTAYLQLSSLTSDDTAIYYCARDLGRSSNYYYYSVFESWGQGTLVTVSS VL: DIVMTQSPATLSLSPGERATLSCRASQSVGDKLAWYQQKPGQAPRLLIYGASTRATDIPARFSGSGSGTEFTLTVSSLQPEDFAVYYCQQYENWPPITFGQGTRLEIK', 0.074);
